Biological target: hNpr1 (Homo sapiens, UniProt P16066)
Sequence (P16066 33-1061): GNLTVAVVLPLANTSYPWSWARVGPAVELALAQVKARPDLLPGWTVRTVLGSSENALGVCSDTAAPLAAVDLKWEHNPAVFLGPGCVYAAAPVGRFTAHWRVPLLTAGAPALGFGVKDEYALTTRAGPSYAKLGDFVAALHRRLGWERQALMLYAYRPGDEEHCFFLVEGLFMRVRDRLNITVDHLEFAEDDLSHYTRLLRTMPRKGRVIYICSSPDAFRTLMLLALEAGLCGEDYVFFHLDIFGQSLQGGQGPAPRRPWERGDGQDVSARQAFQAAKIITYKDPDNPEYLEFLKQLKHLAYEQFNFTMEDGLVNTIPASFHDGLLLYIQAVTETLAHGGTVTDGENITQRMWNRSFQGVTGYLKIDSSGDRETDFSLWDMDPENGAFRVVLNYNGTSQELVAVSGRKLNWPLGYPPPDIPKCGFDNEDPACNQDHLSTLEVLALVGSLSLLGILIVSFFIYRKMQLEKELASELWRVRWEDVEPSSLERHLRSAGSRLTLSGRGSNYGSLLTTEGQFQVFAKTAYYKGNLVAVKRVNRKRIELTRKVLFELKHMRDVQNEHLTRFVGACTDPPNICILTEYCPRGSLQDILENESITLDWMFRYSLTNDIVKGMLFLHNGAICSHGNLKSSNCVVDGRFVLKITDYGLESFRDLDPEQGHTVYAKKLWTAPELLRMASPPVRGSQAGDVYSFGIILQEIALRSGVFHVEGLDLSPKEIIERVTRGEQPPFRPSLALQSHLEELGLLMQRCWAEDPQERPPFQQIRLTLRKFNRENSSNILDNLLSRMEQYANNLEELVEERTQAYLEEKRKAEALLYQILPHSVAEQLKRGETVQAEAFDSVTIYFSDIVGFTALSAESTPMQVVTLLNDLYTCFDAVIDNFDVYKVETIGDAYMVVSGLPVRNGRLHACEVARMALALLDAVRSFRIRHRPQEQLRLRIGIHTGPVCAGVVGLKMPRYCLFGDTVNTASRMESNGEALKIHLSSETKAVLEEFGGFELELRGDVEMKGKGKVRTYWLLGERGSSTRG
Assay: Cell-free hNpr1 membrane cyclase assay (cGMP ELISA)
Assay type: biochemical
Conditions: Table 1; biochemical assay; read-out: IC50 biochem assay
parameter_measured: pIC50
Quick note: pIC50 means taking -log10 of the concentration in moles per liter.

Below: 3 molecules and their reported pIC50.
INSERT INTO results (smiles_text, reported_result) VALUES
  ('Cc1nn2c(c1-c1ccccc1OCc1ccccc1)N(C(=O)Cc1ccc3c(c1)OCO3)CCC2', 6.47),
  ('COc1ccccc1-c1n[nH]c2ncc(C(=O)NCc3cccnc3)nc12', 6.12),
  ('Cc1cc(CNC(=O)c2ccc3c(c2)n(CC2CC2)c(=O)n3C2CCCCC2)on1', 5.94);

[ask] Which measured pIC50 value corresponds to COc1cc(CN2CCC(C)(NC(C)=O)CC2)cc(-c2ccncc2)c1 ?
[reply] 5.66

[ask] Using the record for CN(Cc1ccccc1)C(=O)c1cn2ccnc(-c3ccccc3)c2n1 , report its pIC50.
[reply] 4.73

[ask] pIC50 for Cc1nn2c(c1-c1ccccc1Oc1ccccc1)N(C(=O)Cc1ccc3c(c1)OCO3)CCC2 ?
[reply] 6.13

Where do these numbers come from? They come from patent US11324725B2.
